Known pEC50 of a selection of molecules
Molecular target: UniProt:P33033
Sequence (P33033 whole entry): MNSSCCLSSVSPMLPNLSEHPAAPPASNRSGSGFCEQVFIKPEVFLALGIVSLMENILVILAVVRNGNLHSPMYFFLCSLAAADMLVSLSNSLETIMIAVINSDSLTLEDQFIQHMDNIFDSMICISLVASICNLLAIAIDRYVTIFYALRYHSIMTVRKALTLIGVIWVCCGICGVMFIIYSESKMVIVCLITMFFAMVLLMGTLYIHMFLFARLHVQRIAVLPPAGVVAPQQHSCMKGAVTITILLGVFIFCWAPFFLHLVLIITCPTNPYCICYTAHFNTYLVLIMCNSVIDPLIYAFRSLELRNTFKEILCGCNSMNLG
Assay: Agonist activity at mouse MC3 receptor expressed in HEK293 cells after 6 hrs by cAMP-based beta-galactosidase reporter gene assay
Lab note — pEC50 values are minus log10 of concentrations in M.

// below: answered molecules
Molecule smiles	Test readout	Recorded result
C[C@@H]1NC(=O)[C@@H](NC(=O)[C@@H](N)Cc2ccc(O)cc2)CSSC[C@@H](C(=O)N[C@@H](Cc2ccc(O)cc2)C(N)=O)NC(=O)[C@H](Cc2ccccc2)NC(=O)[C@H](C)NC(=O)[C@H](CC(N)=O)NC(=O)[C@H](Cc2c[nH]c3ccccc23)N2C[C@H](CCCNC(=N)N)NC(=O)[C@@H](CSCC2=O)NC(=O)[C@@H](Cc2ccccc2)NC1=O	pEC50	5.40
C[C@@H]1NC(=O)[C@H](CC(N)=O)NC(=O)[C@H](Cc2ccc3ccccc3c2)N2C[C@H](CCCNC(=N)N)NC(=O)[C@@H](CSCC2=O)NC(=O)[C@@H](Cc2ccccc2)NC(=O)[C@H](Cc2cnc[nH]2)NC(=O)[C@@H](NC(=O)[C@@H](N)Cc2ccc(O)cc2)CSSC[C@@H](C(=O)N[C@@H](Cc2ccc(O)cc2)C(N)=O)NC(=O)[C@H](Cc2ccccc2)NC1=O	pEC50	6.70

Consider now this further molecule.
Input line: What pEC50 value was documented for this molecule, `C[C@@H]1NC(=O)[C@H](CC(N)=O)NC(=O)[C@H](Cc2c[nH]c3ccccc23)N2C[C@H](CCCN=C(N)N)NC(=O)[C@@H](CSCC2=O)NC(=O)[C@@H](Cc2ccccc2)NC(=O)[C@H](Cc2cnc[nH]2)NC(=O)[C@@H](NC(=O)[C@@H](N)Cc2ccc(O)cc2)CSSC[C@@H](C(=O)N[C@@H](Cc2ccc(O)cc2)C(N)=O)NC(=O)[C@H](Cc2ccccc2)NC1=O` ?
Output line: 6.49

====

Molecular target: Melanocortin receptor 5 (Mus musculus)
Experiment: Agonist activity at mouse MC5 receptor expressed in HEK293 cells after 6 hrs by cAMP-based beta-galactosidase reporter gene assay
Type: functional, cell-based
Details: hek293
Known pEC50 of a selection of molecules
Lab note — pEC50 values are minus log10 of concentrations in M.

// below: answered molecules
Molecule smiles	Recorded result
C[C@@H]1NC(=O)[C@H](CC(N)=O)NC(=O)[C@H](Cc2c[nH]c3ccccc23)N2C[C@H](CCCNC(=N)N)NC(=O)[C@H](CSCC2=O)NC(=O)[C@@H](Cc2cccc3ccccc23)NC(=O)[C@H](Cc2c[nH]cn2)NC(=O)[C@@H](NC(=O)[C@@H](N)Cc2ccc(O)cc2)CSSC[C@@H](C(=O)N[C@@H](Cc2ccc(O)cc2)C(N)=O)NC(=O)[C@H](Cc2ccccc2)NC1=O	6.69
C[C@@H]1NC(=O)[C@@H](NC(=O)[C@@H](N)Cc2ccc(O)cc2)CSSC[C@@H](C(=O)N[C@@H](Cc2ccc(O)cc2)C(N)=O)NC(=O)[C@H](Cc2ccccc2)NC(=O)[C@H](C)NC(=O)[C@H](CC(N)=O)NC(=O)[C@H](Cc2c[nH]c3ccccc23)N2C[C@H](CCCNC(=N)N)NC(=O)[C@H](CSCC2=O)NC(=O)[C@@H](Cc2ccccc2)NC1=O	6.16

Consider now this further molecule.
Input line: Look up pEC50 with Melanocortin receptor 5 (Mus musculus) for this molecule: `C[C@@H]1NC(=O)[C@H](CC(N)=O)NC(=O)[C@H](Cc2c[nH]c3ccccc23)N2C[C@H](CCCNC(=N)N)NC(=O)[C@H](CSCC2=O)NC(=O)[C@@H](Cc2ccc(-c3ccccc3)cc2)NC(=O)[C@H](Cc2c[nH]cn2)NC(=O)[C@@H](NC(=O)[C@@H](N)Cc2ccc(O)cc2)CSSC[C@@H](C(=O)N[C@@H](Cc2ccc(O)cc2)C(N)=O)NC(=O)[C@H](Cc2ccccc2)NC1=O`
Output line: 7.06

====

Known pEC50 of a selection of molecules
Target: Melanocortin receptor 5 (Mus musculus, UniProt P41149)
Sequence (P41149 whole entry): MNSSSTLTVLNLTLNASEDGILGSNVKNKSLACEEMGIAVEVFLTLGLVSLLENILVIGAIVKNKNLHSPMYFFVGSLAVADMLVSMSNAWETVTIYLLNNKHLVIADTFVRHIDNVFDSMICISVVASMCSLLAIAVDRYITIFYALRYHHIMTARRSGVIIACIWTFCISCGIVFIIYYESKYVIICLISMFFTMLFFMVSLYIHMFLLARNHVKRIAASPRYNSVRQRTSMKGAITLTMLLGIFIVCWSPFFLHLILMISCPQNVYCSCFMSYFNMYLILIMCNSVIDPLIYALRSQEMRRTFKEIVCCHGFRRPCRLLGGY
Assay: Agonist activity at mouse MC5 receptor expressed in HEK293 cells after 6 hrs by cAMP-based beta-galactosidase reporter gene assay
Format: functional, cell-based
Conditions: hek293
Lab note — pEC50 values are minus log10 of concentrations in M.

// below: answered molecules
Molecule smiles	pEC50
C[C@@H]1NC(=O)[C@H](CC(N)=O)NC(=O)[C@H](Cc2c[nH]c3ccccc23)N2C[C@H](CCCNC(=N)N)NC(=O)[C@H](CSCC2=O)NC(=O)[C@@H](Cc2ccc3ccccc3c2)NC(=O)[C@H](Cc2c[nH]cn2)NC(=O)[C@@H](NC(=O)[C@@H](N)Cc2ccc(O)cc2)CSSC[C@@H](C(=O)N[C@@H](Cc2ccc(O)cc2)C(N)=O)NC(=O)[C@H](Cc2ccccc2)NC1=O	7.34
C[C@@H]1NC(=O)[C@H](CC(N)=O)NC(=O)[C@H](Cc2c[nH]c3ccccc23)N2C[C@H](CCCNC(=N)N)NC(=O)[C@H](CSCC2=O)NC(=O)[C@@H](Cc2ccccc2)NC(=O)[C@H](Cc2ccccc2)NC(=O)[C@@H](NC(=O)[C@@H](N)Cc2ccc(O)cc2)CSSC[C@@H](C(=O)N[C@@H](Cc2ccc(O)cc2)C(N)=O)NC(=O)[C@H](Cc2ccccc2)NC1=O	6.38

Consider now this further molecule.
Input line: What pEC50 value was documented for this molecule, `C[C@@H]1NC(=O)[C@H](CC(N)=O)NC(=O)[C@H](Cc2c[nH]c3ccccc23)N2C[C@H](CCCNC(=N)N)NC(=O)[C@H](CSCC2=O)NC(=O)[C@@H](Cc2ccccc2)NC(=O)[C@@H]2CCCN2C(=O)[C@@H](NC(=O)[C@@H](N)Cc2ccc(O)cc2)CSSC[C@@H](C(=O)N[C@@H](Cc2ccc(O)cc2)C(N)=O)NC(=O)[C@H](Cc2ccccc2)NC1=O` ?
Output line: 6.57

====

Molecular target: Melanocyte-stimulating hormone receptor (Mus musculus)
Experiment: Agonist activity at mouse MC1 receptor expressed in HEK293 cells after 6 hrs by cAMP-based beta-galactosidase reporter gene assay
Format: functional, cell-based
Details: hek293
Test readout: pEC50
Lab note — pEC50 values are minus log10 of concentrations in M.

// below: answered molecules
Molecule smiles	pEC50
C[C@@H]1NC(=O)[C@H](CC(N)=O)NC(=O)[C@H](Cc2c[nH]c3ccccc23)N2C[C@H](CCCNC(=N)N)NC(=O)[C@H](CSCC2=O)NC(=O)[C@@H](Cc2ccc(I)cc2)NC(=O)[C@H](Cc2c[nH]cn2)NC(=O)[C@@H](NC(=O)[C@@H](N)Cc2ccc(O)cc2)CSSC[C@@H](C(=O)N[C@@H](Cc2ccc(O)cc2)C(N)=O)NC(=O)[C@H](Cc2ccccc2)NC1=O	9.30
C[C@@H]1NC(=O)[C@H](CC(N)=O)NC(=O)[C@H](Cc2c[nH]c3ccccc23)N2C[C@H](C)NC(=O)[C@H](CSCC2=O)NC(=O)[C@@H](Cc2ccccc2)NC(=O)[C@H](Cc2c[nH]cn2)NC(=O)[C@@H](NC(=O)[C@@H](N)Cc2ccc(O)cc2)CSSC[C@@H](C(=O)N[C@@H](Cc2ccc(O)cc2)C(N)=O)NC(=O)[C@H](Cc2ccccc2)NC1=O	7.72
C[C@@H]1NC(=O)[C@H](CC(N)=O)NC(=O)[C@@H](Cc2ccc3ccccc3c2)N2C[C@H](CCCNC(=N)N)NC(=O)[C@H](CSCC2=O)NC(=O)[C@@H](Cc2ccccc2)NC(=O)[C@H](Cc2c[nH]cn2)NC(=O)[C@@H](NC(=O)[C@@H](N)Cc2ccc(O)cc2)CSSC[C@@H](C(=O)N[C@@H](Cc2ccc(O)cc2)C(N)=O)NC(=O)[C@H](Cc2ccccc2)NC1=O	7.85

Consider now this further molecule.
Input line: What pEC50 value was documented for this molecule, `C[C@@H]1NC(=O)[C@H](CC(N)=O)NC(=O)[C@H](Cc2c[nH]c3ccccc23)N2C[C@H](CCCNC(=N)N)NC(=O)[C@H](CSCC2=O)NC(=O)[C@@H](Cc2cccc3ccccc23)NC(=O)[C@H](Cc2c[nH]cn2)NC(=O)[C@@H](NC(=O)[C@@H](N)Cc2ccc(O)cc2)CSSC[C@@H](C(=O)N[C@@H](Cc2ccc(O)cc2)C(N)=O)NC(=O)[C@H](Cc2ccccc2)NC1=O` ?
Output line: 8.13

====

Biological target: Melanocyte-stimulating hormone receptor (Mus musculus, UniProt Q01727)
Sequence (Q01727 whole entry): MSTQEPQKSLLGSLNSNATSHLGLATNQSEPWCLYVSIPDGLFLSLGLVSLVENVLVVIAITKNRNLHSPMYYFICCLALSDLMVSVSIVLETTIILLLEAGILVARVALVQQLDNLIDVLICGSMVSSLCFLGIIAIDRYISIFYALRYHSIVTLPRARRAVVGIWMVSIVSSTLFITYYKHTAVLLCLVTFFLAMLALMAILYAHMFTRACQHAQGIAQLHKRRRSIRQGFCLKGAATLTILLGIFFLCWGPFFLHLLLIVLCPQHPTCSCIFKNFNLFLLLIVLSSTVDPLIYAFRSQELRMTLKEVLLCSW
Test: Agonist activity at mouse MC1 receptor expressed in HEK293 cells after 6 hrs by cAMP-based beta-galactosidase reporter gene assay
Format: functional, cell-based
Settings: hek293
Test readout: EC50 (nM)
Report as a plain number; the unit nM is understood.

// below: answered compounds
Molecule smiles	Endpoint unit	Recorded result
C[C@@H]1NC(=O)[C@@H](NC(=O)[C@@H](N)Cc2ccc(O)cc2)CSSC[C@@H](C(=O)N[C@@H](Cc2ccc(O)cc2)C(N)=O)NC(=O)[C@H](Cc2ccccc2)NC(=O)[C@H](C)NC(=O)[C@H](CC(N)=O)NC(=O)[C@H](Cc2c[nH]c3ccccc23)N2C[C@H](CCCNC(=N)N)NC(=O)[C@H](CSCC2=O)NC(=O)[C@@H](Cc2ccccc2)NC1=O	nM	52
C[C@@H]1NC(=O)[C@H](CC(N)=O)NC(=O)[C@H](Cc2c[nH]c3ccccc23)N2C[C@H](CCCN=C(N)N)NC(=O)[C@H](CSCC2=O)NC(=O)[C@@H](Cc2ccccc2)NC(=O)[C@H](Cc2cnc[nH]2)NC(=O)[C@@H](NC(=O)[C@@H](N)Cc2ccc(O)cc2)CSSC[C@@H](C(=O)N[C@@H](Cc2ccc(O)cc2)C(N)=O)NC(=O)[C@H](Cc2ccccc2)NC1=O	nM	2.4

Consider now this further compound.
Input line: What EC50 value was documented for this compound, `C[C@@H]1NC(=O)[C@H](CC(N)=O)NC(=O)[C@H](Cc2c[nH]c3ccccc23)N2C[C@H](CCCNC(=N)N)NC(=O)[C@H](CSCC2=O)NC(=O)[C@@H](Cc2ccccc2)NC(=O)[C@@H]2CCCN2C(=O)[C@@H](NC(=O)[C@@H](N)Cc2ccc(O)cc2)CSSC[C@@H](C(=O)N[C@@H](Cc2ccc(O)cc2)C(N)=O)NC(=O)[C@H](Cc2ccccc2)NC1=O` ?
Output line: 32
